System: PDC 899932-113-R3-J6 complex spheroid viability
Assay name: Anticancer human tumor 899932-113-R3-J6-PDC patient-derived melanoma cell line growth inhibition [RAS]; active means viability on the fitted dose curve at most 10% of control; inactive means the rest
Assay setup: compound 3.16 µM
Outcome codes: 1 for active, 0 for inactive

| Compound | System under test | Discrete label |
| --- | --- | --- |
| Cc1nc(N2CCC3(CC2)COC(C)C3N)c(CO)nc1Sc1ccnc(N)c1Cl (configuration not stated) | PDC 899932-113-R3-J6 complex spheroid viability | 0 |
| CC(=O)OC12COC1CC(O)C1(C)C(=O)C(O)C3=C(C)C(OC(=O)C(O)C(NC(=O)OC(C)(C)C)c4ccccc4)CC(O)(C(OC(=O)c4ccccc4)C21)C3(C)C (configuration not stated) | PDC 899932-113-R3-J6 complex spheroid viability | 0 |
| C[C@@H](NC(=O)c1ncnc(N)c1Cl)c1ncc(C(=O)Nc2cc(C(F)(F)F)c(Cl)cn2)s1 | PDC 899932-113-R3-J6 complex spheroid viability | 0 |
| CC(C)NCC(C(=O)N1CCN(c2ncnc3c2C(C)CC3O)CC1)c1ccc(Cl)cc1 (configuration not stated) | PDC 899932-113-R3-J6 complex spheroid viability | 0 |
| C#Cc1c(F)ccc2cc(O)cc(-c3ncc4c(N5CC6CCC(C5)N6)nc(OCC56CCCN5CC(F)C6)nc4c3F)c12 (configuration not stated) | PDC 899932-113-R3-J6 complex spheroid viability | 0 |
| CCC(CC)c1cc(NC2CCC(N)C2)n2nccc2n1 (configuration not stated) | PDC 899932-113-R3-J6 complex spheroid viability | 1 |
| CC1(O)CCCC1n1c(=O)c(C(F)F)cc2cnc(NC3CCN(S(C)(=O)=O)CC3)nc21 (configuration not stated) | PDC 899932-113-R3-J6 complex spheroid viability | 0 |

* * *

Tested on: PDC 899932-113-R3-J6 complex spheroid viability
Assay name: Anticancer human tumor 899932-113-R3-J6-PDC cell line growth inhibition [RAS];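 on viability, T/C: spheroids exposed to agents for seven days before readout; 100% = DMSO vehicle control wells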
Assay setup: second compound 10 µM; first compound 0.01 µM; stronger effect = lower value
Quantity name: viability, T/C (%)

| Compound | Quantity name | Value measured |
| --- | --- | --- |
| C=CC(=O)Nc1cc(Nc2nccc(-c3cn(C)c4ccccc34)n2)c(OC)cc1N(C)CCN(C)C + C#Cc1c(F)ccc2cc(O)cc(-c3ncc4c(N5CC6CCC(C5)N6)nc(OCC56CCCN5CC(F)C6)nc4c3F)c12 | viability, T/C | 118 |
| CC(C)n1nc(-c2ccc3oc(N)nc3c2)c2c(N)ncnc21 + C#Cc1c(F)ccc2cc(O)cc(-c3ncc4c(N5CC6CCC(C5)N6)nc(OCC56CCCN5CC(F)C6)nc4c3F)c12 | viability, T/C | 115 |
| Nc1ccn(C2OC(CO)C(O)C2(F)F)c(=O)n1 (stereo unspecified) + C#Cc1c(F)ccc2cc(O)cc(-c3ncc4c(N5CC6CCC(C5)N6)nc(OCC56CCCN5CC(F)C6)nc4c3F)c12 | viability, T/C | 67.2 |
| CCN1CCN(Cc2ccc(Nc3ncc(F)c(-c4cc(F)c5nc(C)n(C(C)C)c5c4)n3)nc2)CC1 + C#Cc1c(F)ccc2cc(O)cc(-c3ncc4c(N5CC6CCC(C5)N6)nc(OCC56CCCN5CC(F)C6)nc4c3F)c12 | viability, T/C | 113 |
| O=C(c1ccc(F)c(F)c1Nc1ccc(I)cc1F)N1CC(O)([C@@H]2CCCCN2)C1 + C#Cc1c(F)ccc2cc(O)cc(-c3ncc4c(N5CC6CCC(C5)N6)nc(OCC56CCCN5CC(F)C6)nc4c3F)c12 | viability, T/C | 46 |
| C=CC(=O)N1CCN(c2nc(OCC3CCCN3C)nc3c(F)c(-c4nc(N)cc(C)c4C(F)(F)F)c(Cl)cc23)C(C)C1 (stereo unspecified) + C#Cc1c(F)ccc2cc(O)cc(-c3ncc4c(N5CC6CCC(C5)N6)nc(OCC56CCCN5CC(F)C6)nc4c3F)c12 | viability, T/C | 115 |

* * *

System: PDC 899932-113-R3-J6 complex spheroid viability
Assay name: Anticancer human tumor 899932-113-R3-J6-PDC cell line growth inhibition [RAS]
Assay setup: curve of first compound; second compound 0.1 µM
Excerpt: RAS pathway inhibitors in Combinations in Complex Spheroids A high-throughput screen of multi-cell type tumor spheroids was designed to identify active combinations of RAS pathway inhibitors and targeted small molecules. Complex spheroids include a stromal component modeled by human endothelial cells (HUVEC) and fibroblasts modeled by human mesenchymal stem cells (MSCs). […] Compounds. […] If the clinical Cmax for an agent had not been determined, the highest concentration tested was 10 microM. […]
pIC50: −log10 of the molar value.
Measured pIC50 values are reported for all entries that follow.

| Molecule | System under test | Value qualifier | pIC50 |
| --- | --- | --- | --- |
| Nc1ccn(C2OC(CO)C(O)C2(F)F)c(=O)n1 (stereo not given) + C=CC(=O)N1CCN(c2nc(OCC3CCCN3C)nc3c(F)c(-c4nc(N)cc(C)c4C(F)(F)F)c(Cl)cc23)C(C)C1 | PDC 899932-113-R3-J6 complex spheroid viability | = | 7.65 |
| CCC(CC)c1cc(NC2CCC(N)C2)n2nccc2n1 (stereo not given) + C=CC(=O)N1CCN(c2nc(OCC3CCCN3C)nc3c(F)c(-c4nc(N)cc(C)c4C(F)(F)F)c(Cl)cc23)C(C)C1 | PDC 899932-113-R3-J6 complex spheroid viability | = | 5.76 |
| CC1(O)CCCC1n1c(=O)c(C(F)F)cc2cnc(NC3CCN(S(C)(=O)=O)CC3)nc21 (stereo not given) + C=CC(=O)N1CCN(c2nc(OCC3CCCN3C)nc3c(F)c(-c4nc(N)cc(C)c4C(F)(F)F)c(Cl)cc23)C(C)C1 | PDC 899932-113-R3-J6 complex spheroid viability | = | 5.74 |
| Cc1nc(N2CCC3(CC2)COC(C)C3N)c(CO)nc1Sc1ccnc(N)c1Cl (stereo not given) + C#Cc1c(F)ccc2cc(O)cc(-c3ncc4c(N5CC6CCC(C5)N6)nc(OCC56CCCN5CC(F)C6)nc4c3F)c12 | PDC 899932-113-R3-J6 complex spheroid viability | < | 5.00 |
| CC1(O)CCCC1n1c(=O)c(C(F)F)cc2cnc(NC3CCN(S(C)(=O)=O)CC3)nc21 (stereo not given) + C#Cc1c(F)ccc2cc(O)cc(-c3ncc4c(N5CC6CCC(C5)N6)nc(OCC56CCCN5CC(F)C6)nc4c3F)c12 | PDC 899932-113-R3-J6 complex spheroid viability | = | 5.59 |

* * *

Test system: PDC 899932-113-R3-J6 complex spheroid viability
Assay name: Anticancer human tumor 899932-113-R3-J6-PDC cell line growth inhibition [RAS];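 on viability, T/C: spheroids exposed to agents for seven days before readout; 100% = DMSO vehicle control wells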
Assay setup: second compound 0.000949 µM; first compound 0.0949 µM; stronger effect = lower value
Below, each entry is listed with its recorded viability, T/C.
Quantity name: viability, T/C (%)

| Compound | Quantity name | Value measured |
| --- | --- | --- |
| CCc1c2c(nc3ccc(O)cc13)-c1cc3c(c(=O)n1C2)COC(=O)[C@]3(O)CC + CCn1c(-c2cc(N3CCN(C)CC3)cnc2C(C)OC)c2c3cc(ccc31)-c1csc(n1)CC(NC(=O)C1CC1C)C(=O)N1CCCC(N1)C(=O)OCC(C)(C)C2 | viability, T/C | 22.6 |
| CC1(C)CCC(Nc2ncc(C(F)(F)F)c(-c3c[nH]c4c(P(C)(C)=O)c(C#N)ccc34)n2)CN1 (centres undefined) + CCn1c(-c2cccnc2C(C)OC)c2c3cc(ccc31)N1CCOC(CC(NC(=O)C(C(C)C)N(C)C(=O)C3(F)CCN(C(=O)C#CC(C)(C)N(C)C)CC3)C(=O)N3CCCC(N3)C(=O)OCC(C)(C)C2)C1 | viability, T/C | 34 |
| CC1(C)CCC(Nc2ncc(C(F)(F)F)c(-c3c[nH]c4c(P(C)(C)=O)c(C#N)ccc34)n2)CN1 (centres undefined) + CCn1c(-c2cc(N3CCN(C)CC3)cnc2C(C)OC)c2c3cc(ccc31)-c1csc(n1)CC(NC(=O)C1CC1C)C(=O)N1CCCC(N1)C(=O)OCC(C)(C)C2 | viability, T/C | 15.4 |
| CCc1c2c(nc3ccc(O)cc13)-c1cc3c(c(=O)n1C2)COC(=O)[C@]3(O)CC + CCn1c(-c2cccnc2C(C)OC)c2c3cc(ccc31)N1CCOC(CC(NC(=O)C(C(C)C)N(C)C(=O)C3(F)CCN(C(=O)C#CC(C)(C)N(C)C)CC3)C(=O)N3CCCC(N3)C(=O)OCC(C)(C)C2)C1 | viability, T/C | 39.9 |

* * *

Test system: PDC 899932-113-R3-J6 complex spheroid viability
Assay name: Anticancer human tumor 899932-113-R3-J6-PDC cell line growth inhibition [RAS]; active = viability on the fitted dose curve at most 10% of control; inactive = the rest
Assay setup: second compound 0.316 µM; first compound 1 µM
Outcomes: True for active, False for inactive

| Molecule | Discrete label |
| --- | --- |
| O=C(c1ccc(F)c(F)c1Nc1ccc(I)cc1F)N1CC(O)([C@@H]2CCCCN2)C1 + C=CC(=O)N1CCN(c2nc(OCC3CCCN3C)nc3c(F)c(-c4nc(N)cc(C)c4C(F)(F)F)c(Cl)cc23)C(C)C1 | True |
| Cc1nc(N2CCC3(CC2)COC(C)C3N)c(CO)nc1Sc1ccnc(N)c1Cl (stereo not given) + C=CC(=O)N1CCN(c2nc(OCC3CCCN3C)nc3c(F)c(-c4nc(N)cc(C)c4C(F)(F)F)c(Cl)cc23)C(C)C1 | False |
| CC1(O)CCCC1n1c(=O)c(C(F)F)cc2cnc(NC3CCN(S(C)(=O)=O)CC3)nc21 (stereo not given) + C=CC(=O)N1CCN(c2nc(OCC3CCCN3C)nc3c(F)c(-c4nc(N)cc(C)c4C(F)(F)F)c(Cl)cc23)C(C)C1 | False |
| CCC(CC)c1cc(NC2CCC(N)C2)n2nccc2n1 (stereo not given) + C=CC(=O)N1CCN(c2nc(OCC3CCCN3C)nc3c(F)c(-c4nc(N)cc(C)c4C(F)(F)F)c(Cl)cc23)C(C)C1 | False |
| C[C@@H](NC(=O)c1ncnc(N)c1Cl)c1ncc(C(=O)Nc2cc(C(F)(F)F)c(Cl)cn2)s1 + C=CC(=O)N1CCN(c2nc(OCC3CCCN3C)nc3c(F)c(-c4nc(N)cc(C)c4C(F)(F)F)c(Cl)cc23)C(C)C1 | False |
